Study the reported pIC50 values for CD73 (Homo sapiens (Human)) given below; they originate from different publications.
pIC50: −log10 of the molar value.

A selection of reference data follows.
1) O=C(N[C@@H]1CCC[C@H]1C(=O)O)O[C@@H]1CCN(c2cn[nH]c(=O)c2Cl)C1 | 5.00 to 9.00
2) C[C@@H](Nc1nc(Cl)nc2c1cnn2[C@@H]1O[C@H](COP(=O)(O)CP(=O)(O)O)[C@@H](O)[C@H]1O)c1ccc(S(F)(F)(F)(F)F)cc1 | 8.17
3) C[C@](CO)(OC[C@H]1O[C@@H](n2ncc3c(N[C@@H]4CC[C@H]5CCC[C@H]54)nc(Cl)nc32)[C@H](O)[C@@H]1O)P(=O)(O)O (racemic) | ≥ 7.00
4) O=C(N[C@@H]1CC[C@H](O)C1)O[C@@H]1CCN(c2cn[nH]c(=O)c2Cl)C1 | 5.00 to 9.00
5) COCC(C)(OC[C@H]1O[C@@H](n2ncc3c(NCC4CC4)nc(Cl)nc32)[C@H](O)[C@@H]1O)P(=O)(O)O (stereo partly shown) | ≥ 7.00

### Prompt What measured pIC50 goes with O=C(N[C@@H]1CCN(c2cn[nH]c(=O)c2Cl)C1)O[C@@H]1CCN(c2cn[nH]c(=O)c2Cl)C1 ?
### Response 5.00 to 9.00

### Prompt Would you kindly share the measured pIC50 for COCC(CO)(OC[C@H]1O[C@@H](c2cnn3c(NC4CCCC4)cc(Cl)nc23)[C@H](O)[C@@H]1O)P(=O)(O)O (stereo partly shown) ?
### Response 7.00 to 9.00
